Hi there, I'd appreciate the recorded hERG current change (%, negative = inhibition) at 10uM for every entry that follows.
Target: human ether-à-go-go-related gene (hERG) potassium channel (human, UniProt Q12809);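 note: peak tail current of the secondary pulse compared with the same well before compound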
Sequence (Q12809 whole entry, looked up): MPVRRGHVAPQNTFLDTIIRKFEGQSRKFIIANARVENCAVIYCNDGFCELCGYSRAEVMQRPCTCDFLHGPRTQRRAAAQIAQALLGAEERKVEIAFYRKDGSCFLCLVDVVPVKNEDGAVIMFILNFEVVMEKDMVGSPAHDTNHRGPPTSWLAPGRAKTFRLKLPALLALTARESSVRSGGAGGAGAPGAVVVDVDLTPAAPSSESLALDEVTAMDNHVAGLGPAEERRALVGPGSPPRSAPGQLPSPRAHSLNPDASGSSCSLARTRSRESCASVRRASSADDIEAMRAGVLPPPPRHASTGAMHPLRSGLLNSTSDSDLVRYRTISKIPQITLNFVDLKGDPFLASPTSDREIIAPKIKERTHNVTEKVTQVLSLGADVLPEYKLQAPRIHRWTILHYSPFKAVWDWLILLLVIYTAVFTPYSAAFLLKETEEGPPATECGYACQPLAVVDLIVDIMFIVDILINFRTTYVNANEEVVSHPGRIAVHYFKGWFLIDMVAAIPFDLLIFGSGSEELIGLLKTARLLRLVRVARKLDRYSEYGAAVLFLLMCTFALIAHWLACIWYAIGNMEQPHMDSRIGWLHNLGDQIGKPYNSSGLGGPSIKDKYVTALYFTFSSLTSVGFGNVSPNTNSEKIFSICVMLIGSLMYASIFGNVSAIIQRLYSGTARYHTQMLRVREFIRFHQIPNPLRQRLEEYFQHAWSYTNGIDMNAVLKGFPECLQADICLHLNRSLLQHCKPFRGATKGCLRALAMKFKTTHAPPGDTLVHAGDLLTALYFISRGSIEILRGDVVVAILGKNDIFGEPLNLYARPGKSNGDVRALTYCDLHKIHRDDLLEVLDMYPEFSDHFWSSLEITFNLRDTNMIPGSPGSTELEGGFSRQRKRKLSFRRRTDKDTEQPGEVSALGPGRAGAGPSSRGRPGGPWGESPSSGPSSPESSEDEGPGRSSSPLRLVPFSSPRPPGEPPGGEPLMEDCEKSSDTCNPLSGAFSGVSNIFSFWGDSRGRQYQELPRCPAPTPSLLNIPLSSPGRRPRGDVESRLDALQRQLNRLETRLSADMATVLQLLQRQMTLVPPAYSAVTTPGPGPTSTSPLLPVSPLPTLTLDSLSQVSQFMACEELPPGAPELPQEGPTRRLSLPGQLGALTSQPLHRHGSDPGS
Assay: primary screen, population patch clamp on CHO cells stably expressing hERG; higher = less effect of the substance
Method: Briefly, Chinese hamster ovary (CHO) cells stably expressing the hERG channel were dislodged from tissue culture flasks and dispensed into PPC plates. […] During the recording, background leak currents were estimated by a 100 ms step to -80 mV from an initial holding potential of -70 mV and subtracted from the subsequent current measurement. The campaign was conducted in two phases using slight differences in recording protocol. […]
The campaign covered roughly 310,000 compounds. About 14,000 (4.5%) showed an effect of 50% or more. The effect is printed as a negative number. Many of the other results were omitted from the sample, so strong results are more common in it than they were.
// return numeric value only (unit: %, not printed)

// query Would you mind telling me what hERG current change (%, negative = inhibition) at 10uM value was observed for `O=C(CN1CCCCCCC1)Nc1ccc(Cl)cc1Cl` ?
// result 35.9

// query Would you mind telling me what hERG current change (%, negative = inhibition) at 10uM value was observed for `CN1CCN(CC(=O)Nc2ccc(Cl)cc2Cl)CC1` ?
// result -69.4

// query Would you mind telling me what hERG current change (%, negative = inhibition) at 10uM value was observed for CC(C)c1ccc(NC(=O)N2CCCC2C(=O)Nc2ccc(-n3cnnn3)cc2)cc1 (stereo not drawn) ?
// result -61.8

// query Would you mind telling me what hERG current change (%, negative = inhibition) at 10uM value was observed for `CN1CCN(C(=S)SCC(=O)Nc2ccc(Cl)cc2C(=O)c2ccccc2)CC1` ?
// result -29.8

// query Would you mind telling me what hERG current change (%, negative = inhibition) at 10uM value was observed for Cc1ccc(NC(=O)C2CCCN2C(=O)NC2CCCCC2)cc1 (stereo not drawn) ?
// result 8.72

// query Would you mind telling me what hERG current change (%, negative = inhibition) at 10uM value was observed for `O=C(CN1CCCC1)Nc1ccc(Cl)cc1C(=O)c1ccccc1.O=C(O)C(=O)O` ?
// result -46.8

// query Would you mind telling me what hERG current change (%, negative = inhibition) at 10uM value was observed for `Cc1cc(Cl)ccc1NC(=O)CN1CCCC1` ?
// result 27.1

// query Would you mind telling me what hERG current change (%, negative = inhibition) at 10uM value was observed for `CCN(CC)c1ccc(S(=O)(=O)N2CCOCC2)cc1NC(=O)CSC(=S)N1CCCC1` ?
// result -32.2

// query Would you mind telling me what hERG current change (%, negative = inhibition) at 10uM value was observed for `CCOC(=O)C1(Cc2ccc(Cl)cc2)CCN(Cc2cn(CC)nc2C)CC1` ?
// result -67.7

// query Would you mind telling me what hERG current change (%, negative = inhibition) at 10uM value was observed for `O=C(O)C(=O)O.c1ccc(OCCN2CCN(C(c3ccccc3)c3ccccc3)CC2)cc1` ?
// result -14.6

// query Would you mind telling me what hERG current change (%, negative = inhibition) at 10uM value was observed for `CCOC(=O)C1(S(=O)(=O)c2ccc(Cl)cc2)CCN(Cc2ccc(Cl)cc2)CC1` ?
// result 14.7

// query Would you mind telling me what hERG current change (%, negative = inhibition) at 10uM value was observed for Cc1ccc(NC(=O)N2CCCC2C(=O)Nc2ccc(-n3cnnn3)c(C)c2)cc1 (stereo not drawn) ?
// result -18.7

// query Would you mind telling me what hERG current change (%, negative = inhibition) at 10uM value was observed for `Cc1cccc(NC(=O)CSCC(=O)Nc2cc(S(=O)(=O)N3CCOCC3)ccc2OC(C)C)c1` ?
// result -87.2

// query Would you mind telling me what hERG current change (%, negative = inhibition) at 10uM value was observed for `CCOc1ccc(S(=O)(=O)N2CCOCC2)cc1NC(=O)CSCc1ccc(C)cc1` ?
// result -53.2

// query Would you mind telling me what hERG current change (%, negative = inhibition) at 10uM value was observed for Cc1cc(C)cc(NC(=O)N2CCCC2C(=O)Nc2ccc(-n3cnnn3)c(C)c2)c1 (stereo not drawn) ?
// result -12.3

// query Would you mind telling me what hERG current change (%, negative = inhibition) at 10uM value was observed for `Cc1ccc(S(=O)(=O)N2CCC(C(=O)Nc3ccc(S(=O)(=O)N4CCCC4)cc3)CC2)cc1` ?
// result -10.6

// query Would you mind telling me what hERG current change (%, negative = inhibition) at 10uM value was observed for `CCOC(=O)C1(Cc2ccc(Cl)cc2)CCN(Cc2ccon2)CC1` ?
// result -49.5

// query Would you mind telling me what hERG current change (%, negative = inhibition) at 10uM value was observed for Cc1cc(NC(=O)C2CCCN2C(=O)Nc2c(C)cccc2C)ccc1-n1cnnn1 (stereo not drawn) ?
// result -10.9

// query Would you mind telling me what hERG current change (%, negative = inhibition) at 10uM value was observed for `CCOC(=O)C1(Cc2cccc(F)c2)CCN(Cc2ccc(COC)o2)CC1` ?
// result -23.5

// query Would you mind telling me what hERG current change (%, negative = inhibition) at 10uM value was observed for `CCOC(=O)C1(Cc2cccc(OC)c2)CCN(Cc2cnc(N)nc2)CC1` ?
// result -28.2

// query Would you mind telling me what hERG current change (%, negative = inhibition) at 10uM value was observed for `O=C(O)C(=O)O.Oc1ccccc1CN1CCN(C(c2ccccc2)c2ccccc2)CC1` ?
// result 17

Origin of values: paper PMC4336329
